Provide the reported TGI of each item.
Test system: LXFL 529 NSCLC
Assay: NCI tumour cell line growth inhibition, 48 h

# input Tell me its TGI given OCc1ccc(C2CC(c3ccco3)=NN2c2ccccc2)o1 (configuration not stated) as the entry.
# output > 100 µM

# input Tell me its TGI given N#CC1CC2(C1)OCCS2 (configuration not stated) as the entry.
# output > 100 µM

# input Tell me its TGI given Nc1ccc2cc3ccc(N)cc3nc2c1 as the entry.
# output 10.3 µM

# input Tell me its TGI given CCCCCCCCCCCC(=O)OCC1OC(OC)C(NC(=O)N(CCCl)N=O)C(O)C1O (configuration not stated) as the entry.
# output 26.4 µM

# input Tell me its TGI given COc1ccc2nc(NC(=O)C(=O)C(C#N)c3ccc([N+](=O)[O-])cc3)sc2c1 (configuration not stated) as the entry.
# output > 100 µM

# input Tell me its TGI given O=C1CSC(/C(=N/Nc2ccccc2)c2nc3ccccc3[nH]2)=N1 as the entry.
# output > 100 µM

# input Tell me its TGI given O=C1[C@@H]2C(c3ccccc3F)=NO[C@@H]2C(=O)N1c1ccc(Cc2ccc(N3C(=O)[C@H]4C(c5ccccc5F)=NO[C@H]4C3=O)cc2)cc1 as the entry.
# output > 100 µM

# input Tell me its TGI given O=C1OC2CCCC[C@@H]2C2C[C@]34CCCCC3[C@@H](C(=O)O4)C12 (some centres not stated) as the entry.
# output > 100 µM

# input Tell me its TGI given C=C1C(=O)OC2/C=C(\COC(C)=O)CCC(OC(C)=O)C3=CC(OC3=O)C12 (configuration not stated) as the entry.
# output 3.56 µM

# input Tell me its TGI given CCCSc1nc(COC(=O)NC)c(COC(=O)NC)n1C as the entry.
# output > 100 µM

# input Tell me its TGI given CSc1sc2ccccc2[s+]1 as the entry.
# output > 100 µM

# input Tell me its TGI given O=C1CC2CCCC23CC2(CCN13)OCCO2 (configuration not stated) as the entry.
# output > 100 µM

====

Tested on: SK-OV-3 ovarian
Test: NCI tumour cell line growth inhibition, 48 h
Result type: GI50

# input Tell me its GI50 given CC1=C(C(=O)Nc2ccc(F)c(Cl)c2)C(c2cccc(O)c2)NC(=O)N1 (configuration not stated) as the entry.
# output > 100 µM

# input Tell me its GI50 given C[C@H](O)C(=O)N1CCC(CCn2c(Sc3cc4c(cc3Br)OCO4)nc3c(N)ncnc32)CC1 as the entry.
# output 0.48 µM

# input Tell me its GI50 given Cc1ccc(-c2nc3ccc(Cl)cc3c(=O)n2N2C(=O)CSC2c2ccccc2Cl)cc1 (configuration not stated) as the entry.
# output 2.89 µM

# input Tell me its GI50 given C#Cc1c(I)n(C2OC(CO[Si](C)(C)C(C)(C)C)C3OC(C)(C)OC32)c(=O)[nH]c1=O (configuration not stated) as the entry.
# output 33.2 µM

# input Tell me its GI50 given CC/C=C\C[C@H]1C/C=C2/C(=O)C=C[C@@H]2C/C=C\CCCC(=O)O1 as the entry.
# output 3.99 µM

# input Tell me its GI50 given CC(CO)(CO)NCCCCn1ccc2c1C(=O)c1c(c(O)c3ccccc3c1O)C2=O as the entry.
# output 27.4 µM

# input Tell me its GI50 given Nc1ccc(-c2nc3ccc(Cc4ccc5nc(-c6ccc(N)cc6)[nH]c5c4)cc3[nH]2)cc1 as the entry.
# output 18.9 µM

====

Tested on: UACC-257 melanoma
Assay: NCI tumour cell line growth inhibition, 48 h
Provide the reported TGI of each item.

# input Tell me its TGI given C=C(Cl)C(C)(Cl)CCC(Br)C(C)(C)Cl (stereo unspecified) as the entry.
# output 30.5 µM

# input Tell me its TGI given CSc1cnc2ccccc2c1SC1CN(Cc2ccccc2)c2ccccc2C1=O (stereo unspecified) as the entry.
# output > 100 µM

# input Tell me its TGI given Cc1ccc2c(c1)C(=O)C1(C2)Cc2cccc(C)c2C1=O (stereo unspecified) as the entry.
# output > 100 µM

# input Tell me its TGI given NC(CCC(=O)NC(CSCC1C(=O)Nc2ccccc21)C(=O)NCC(=O)O)C(=O)O (stereo unspecified) as the entry.
# output 19.5 µM

# input Tell me its TGI given O=NN(CCCl)C(=O)NC1CCC(O)CC1 (stereo unspecified) as the entry.
# output > 85.2 µM

# input Tell me its TGI given CCCCN=C(c1ccccc1)N1CCOCC1 as the entry.
# output > 100 µM

# input Tell me its TGI given C=CC[C@]12C=C(OC)[C@@H](O)[C@](OC)(C(c3cc(OC)c4c(c3)OCO4)[C@H]1C)[C@H]2OC(C)=O (stereo partly specified) as the entry.
# output > 100 µM

# input Tell me its TGI given Cc1ccc(S(=O)(=O)C(C#N)c2nc3ccccc3nc2-n2ccnc2)cc1 (stereo unspecified) as the entry.
# output > 100 µM

# input Tell me its TGI given CCN(CC)c1ccc(N=Nc2ccc(-c3nc4ccc[n+](C)c4s3)cc2)cc1 as the entry.
# output 24.1 µM

# input Tell me its TGI given Cc1ccc(-c2nc3ccc(Cl)cc3c(=O)n2N2C(=O)CSC2c2ccccc2Cl)cc1 (stereo unspecified) as the entry.
# output > 100 µM

# input Tell me its TGI given C/C(N=NC(=S)N(C)C)=C1\C=CC=CN1O as the entry.
# output > 100 µM

# input Tell me its TGI given [N-]=[N+]=NC1=C(c2ccccn2)C(=O)c2cccc3cccc1c23 as the entry.
# output 98.4 µM

# input Tell me its TGI given CCC1(C)C=Cc2c(cc(O)c3c(=O)c4ccccc4n(C)c23)O1 (stereo unspecified) as the entry.
# output > 10 µM

# input Tell me its TGI given COC1C=COC2(C)Oc3c(C)c(O)c4c(O)c(c(C5SCCS5)c(O)c4c3C2=O)NC(=O)C(C)=C/C=C\C(C)C2OC(C)(C)OC(C2C)C(C)C(OC(C)=O)C1C (stereo unspecified) as the entry.
# output 7.89 µM

# input Tell me its TGI given Clc1ccc2c(c1)-c1c3c(nn1-c1ccccc1)-c1ccccc1SC3O2 (stereo unspecified) as the entry.
# output > 100 µM

# input Tell me its TGI given Nc1ccc(C(=O)N2CCC[C@H]2CO)c(N)c1 as the entry.
# output > 100 µM

# input Tell me its TGI given C=C([C@@]1(O)C[C@H]2[C@H](CCC2(OC)OC)[C@@H]2c3ccccc3O[C@@H]21)[Si](C)(C)C as the entry.
# output > 100 µM

# input Tell me its TGI given CN1C2CCC1CC(C)(O)C2 (stereo unspecified) as the entry.
# output > 100 µM

# input Tell me its TGI given COc1c(C(C)C)cc2c3c1OC(=O)[C@@]31CCCC(C)(C)C1CC2 (stereo partly specified) as the entry.
# output 54.1 µM

# input Tell me its TGI given CC(C)(C)C(=O)CC1=Nc2ccccc2SC1(O)CC(=O)C(C)(C)C (stereo unspecified) as the entry.
# output > 100 µM

# input Tell me its TGI given N#Cc1c(Cl)cc(Cl)n2c1nc1ccccc12 as the entry.
# output 25.1 µM

====

Test system: SK-OV-3 ovarian
Assay: NCI tumour cell line growth inhibition, 48 h
Result type: TGI (µM)
Dear colleague, please return just the value in µM, with no unit written.

# input Print SK-OV-3 ovarian TGI for CCN1CCC(O)(/C=C/c2ccc(C)cc2C)C(C(=O)/C=C/c2ccc(C)cc2C)C1 (stereo unspecified) .
# output 26.7

# input Print SK-OV-3 ovarian TGI for O=C(O)/C=c1/c2ccccc2n2nc3ccccc3c12 .
# output 65.7

# input Print SK-OV-3 ovarian TGI for COc1ccc(/C=C/C(=O)C(CC2CCC2)C(=O)/C=C/c2ccc(OC)c(OC)c2)cc1OC .
# output 6.69

# input Print SK-OV-3 ovarian TGI for CCOc1cc(C(C)(C)C)ccc1C1=N[C@@](C)(c2ccc(Cl)cc2)[C@@](C)(c2ccc(Cl)cc2)N1C(=O)N1CCN(CCCS(C)(=O)=O)CC1 .
# output 32.9

# input Print SK-OV-3 ovarian TGI for CC(=O)C(=CN1CCN(C(=O)c2ccco2)C1=S)C(C)=O .
# output 43.9

====

Provide the reported TGI of each item.
Test system: SW-620 colon
Assay: NCI tumour cell line growth inhibition, 48 h
Dear colleague, please return just the value in µM, with no unit written.

# input Tell me its TGI given O=C1c2cccnc2-c2nccc3c2c1nc1cc(Br)ccc13 as the entry.
# output 0.162

# input Tell me its TGI given O=c1c2ccccc2c(=O)c2c1[nH]c1c(-c3ccccc3)c(-c3ccccc3)c(=O)c12 as the entry.
# output 14.1

# input Tell me its TGI given Nc1[nH]nc2nc3ccc(C(F)(F)F)cc3nc12 as the entry.
# output 33.4

# input Tell me its TGI given COc1cccc2c(=O)c3c(sc12)c(N1CCNCC1)nc1ccccc13 as the entry.
# output 3.09
